tested-on: SARS-CoV-2 MPro (main protease, 3CL protease, Nsp5) (Severe acute respiratory syndrome coronavirus 2, UniProt P0DTD1)
Construct: gene rep
test-description: biochemical
Set-up: fluorogenic NSP7 peptide substrate cleavage, concentration-response inhibition of MPro
condition-info: read-out: IC50 [µM] (DMSO); compound in DMSO; inhibitor
quantity-kind: IC50 (µM)
API: value field is a number in µM; no unit string.

What does the data say about its IC50? Entry: CC1CN(c2ncnc3sc4ccccc4c23)CC(=O)N1C (stereo not shown) 250

* * *

Provide the recorded pIC50 for the entries that follow.
tested-on: SARS-CoV-2 MPro (main protease, 3CL protease, Nsp5) (Severe acute respiratory syndrome coronavirus 2, UniProt P0DTD1)
Construct: gene rep
test-description: biochemical
Parameters: fluorogenic NSP7 peptide substrate cleavage, concentration-response inhibition of MPro
Here pIC50 is given on a logarithmic scale as minus log10 of the concentration in mol/L.

Need pIC50 of COc1cc(C=O)c(OS(=O)(=O)CC2CCCCC2)cc1OC , thanks. 3.94

And what about the compound O=C(Cc1cccnc1)N(Cc1ccccn1)c1ccc(Cl)cc1 ? 3.67

Consider next the compound O=c1cc(CN2CC(CO)c3ccccc32)nc2ccccn12 (stereo not drawn) in the same way. 4.01

Queued: CC1CN(C(=O)CCn2cc(Br)ccc2=O)Cc2ccccc2O1 (stereo not drawn) 3.70

Try the compound Cc1noc(C)c1CCCNc1nc(-c2ccncc2)nc2ccccc12 3.91

How about this compound: COC(=O)c1cc(C#N)c(=O)n(Cc2cccc(F)c2Cl)c1 3.55
